Taken from PubChem BioAssay.

method: modulation of C. elegans fzo-1 (AID 1259413);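 further: fzo-1 mutant C. elegans worms in liquid wells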
cond: C. elegans fzo-1 modulator screen, mean read-out; stronger effect = higher value
measuredProperty: mean signal
Please give only the number in your answer, with no unit.

Value lookup for mean signal; key = COc1ccccc1OCCNCC(O)COc1cccc2[nH]c3ccccc3c12 (stereo not drawn)
201

Sample Cc1ccccc1C(OCCN(C)C)c1ccccc1 (stereo not drawn) — what was its mean signal?
231

Fill blank: measured mean signal of the compound NC(=O)N1c2ccccc2CC(=O)c2ccccc21 is ____.
241

For NCCc1ccc(O)c(O)c1 , what is its reported mean signal?
263

Consider the compound shown here: CC(CN1c2ccccc2Sc2ccccc21)N(C)C (stereo not drawn) What is its recorded mean signal?
245

Reported mean signal for CCCCC1=NC2(CCCC2)C(=O)N1Cc1ccc(-c2ccccc2-c2nn[nH]n2)cc1 : what is it?
269

I would be grateful if you could share the reported mean signal for Fc1ccc([C@@H]2CCNC[C@H]2COc2ccc3c(c2)OCO3)cc1 .
159

Consider the compound CCCN(CCC)S(=O)(=O)c1ccc(C(=O)O)cc1 and give its measured mean signal.
252

GET /values?readout=mean signal&item= COc1cc2nc(N(C)CCCNC(=O)C3CCCO3)nc(N)c2cc1OC (stereo not drawn)
257

Consider the compound shown here: CC(C)NCC(O)c1cc(O)cc(O)c1 (stereo not drawn) What is its recorded mean signal?
261

Report mean signal for CN1C(C(=O)Nc2ccccn2)=C(O)c2ccccc2S1(=O)=O please.
261

Consider the compound shown here: CCCc1cc(=O)[nH]c(=S)[nH]1 What is its recorded mean signal?
248

Please report the recorded mean signal for Cc1ncc([N+](=O)[O-])n1CC(C)O (stereo not drawn) .
281

----------
Assignment: determine reported z-score for the given compounds.
method: kinase inhibitors altering Pseudomonas killing of worms, whole organism (AID 651566);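 further: tested at 14 µM; sign flipped so higher z means a lower ratio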
cond: C. elegans killed by P. aeruginosa, survival ratio
Give the value as a plain number.

Fill in the blank: the reported z-score of CCC(=O)Nc1ccc(C)c(-c2ccc(C(=O)NCC3CC3)cc2)c1 is ____.
0.67

Quick check: z-score of COc1cc(N2CCN(C(C)C)CC2)ccc1Nc1nc(Nc2ccc(F)cc2C(N)=O)c2cc[nH]c2n1 ?
0.205

What value of z-score has been reported for the following compound? COC(=O)c1cncc(/C=C/c2c(C)cc(O)cc2C)c1
0.295

So what's the measured z-score for this one? COc1cccc(-c2c[nH]c3c(N/N=C/c4ccncc4)ncnc23)c1
-0.245

Return reported z-score; argument: COc1ccc2ncn(-c3cc(O[C@H](C)c4ccccc4C(F)(F)F)c(C(N)=O)s3)c2c1
0.355

// lookup z-score for COc1ccccc1C1=C(Nc2ccccc2)C(=O)NC1=O
-0.36

What does the record list as z-score for COC(=O)Nc1nc2ccc(Oc3cccc(NC(=O)Nc4cc(C(F)(F)F)ccc4F)c3)cc2[nH]1 ?
1.03

Given CN(C)CCOc1ccc(-c2cc(-c3ccc4c(c3)CC/C4=N/O)c(-c3ccncc3)o2)cc1 , state its recorded z-score.
0.205

Quick check: z-score of CNC(=O)c1cccc(C#Cc2cncnc2Nc2ccc(OCc3cccc(F)c3)c(Cl)c2)c1 ?
0.59

Item under review: CN(C)CCOc1ccc(-c2nc(-c3ccc4c(c3)CC/C4=N\O)c(-c3ccncc3)[nH]2)cc1 . Reported z-score?
-0.45

Item under review: COC(=O)Nc1nc2ccc(Oc3ccc(NC(=O)Nc4cc(C(F)(F)F)ccc4F)cc3)cc2s1 . Reported z-score?
-0.21

Quick check: z-score of Cc1nnc(-c2ccc(C)c(-c3ccc(C(=O)Nc4cccc(C#N)c4)cc3)c2)o1 ?
-0.18

Entry under review: Cc1ccc(NC(=O)c2ccnc(N3CCOCC3)c2)cc1-c1ccc(C(=O)NCC2CC2)cc1 . Reported z-score?
0.01

Value lookup for z-score; key = CCS(=O)(=O)c1ccc(OC)c(Nc2nccc(N(C)c3ccc4c(C)[nH]nc4c3)n2)c1
-0.175

State the recorded z-score for this entry: COc1cccc(-n2nc(C)c3c(N/N=C(\C)c4ccncc4)ncnc32)c1
0.74

Consider the compound CS(=O)(=O)CCNCc1ccc(-c2ccc3ncnc(Nc4ccc(OCc5ccccc5)c(Cl)c4)c3c2)o1 and give its measured z-score.
-0.785

Dear colleague, I am looking for the recorded z-score of the following compound: c1ccc(COc2ccc(Nc3ncnc4ccc(-c5ccco5)cc34)cc2)cc1
0.34

Please give the measured z-score for this compound: CCc1nn2ncccc2c1-c1ccnc(NC2CC2)n1
0.555

Bench note: what z-score did COc1ccc(-c2oc3ncnc(N)c3c2-c2ccc(NC(=O)Nc3cc(C(F)(F)F)ccc3F)cc2)cc1 show?
0.785

Give its z-score value. Item: c1ccc(Cc2nc3ccc(Nc4ncnc5ccccc45)cc3[nH]2)cc1
1.34

Please give the measured z-score for this compound: Cc1ccc2c(-c3ccnc(Nc4cccc(C(F)(F)F)c4)n3)c(-c3ccccc3)nn2n1
-0.495

Quick one: z-score for O=S(=O)(CCNCc1ccc(-c2ccc3ncnc(Nc4ccc(OCc5cccc(F)c5)c(Cl)c4)c3c2)o1)c1ccccc1 ?
-0.37

Given the compound Cc1nnc(-c2ccc(C)c(-c3ccc(C(=O)NCc4ccc(Cl)cc4)cc3)c2)o1 , what is its reported z-score?
0.9

Given the compound CS(=O)(=O)c1ccc(Oc2nccc(-c3c(-c4ccc(F)cc4)ncn3C3CCNCC3)n2)cc1 , what is its reported z-score?
-0.505

z-score for O=C1NC(=O)C(c2ccccc2Cl)=C1Nc1cccc(O)c1 ?
-0.34

z-score for Fc1ccc(-c2ncn(C3CCNCC3)c2-c2ccnc(Oc3ccc4c(c3)OCO4)n2)cc1 ?
0.22

Please give the measured z-score for this compound: CC(C)=Cc1cccc2[nH]c(O)c(N=Nc3ccc(S(N)(=O)=O)cc3)c12
-0.155

Entry CN(c1ccc(NC(=O)NCCN2CCOCC2)cc1)c1ccnc(Nc2ccc(CS(C)(=O)=O)cc2)n1 has what z-score?
0.89

Need z-score, item O/N=C1/CCc2cc(-c3nc(C4CCNCC4)[nH]c3-c3ccncc3)ccc21
0.24

So what's the measured z-score for this one? Nc1nc(-c2ccc3c(c2)/C(=C\c2cc(Br)c(O)c(Br)c2)C(=O)N3)cs1
0.35

What z-score value was documented for this compound, Nc1nonc1-c1nc2cnccc2n1C1CCCCC1 ?
-0.155

Name the reported z-score value associated with the compound CN1CCC(n2cnc(-c3ccc(F)cc3)c2-c2ccnc(N)n2)CC1
0.34

Endpoint output: z-score of CCOc1ccc2c(-c3ccnc(Nc4cc(OC)cc(C(F)(F)F)c4)n3)cnn2n1 . Value?
-0.445

Quick check: z-score of O=C(O[C@H]1CN[C@H](C#Cc2cc3ncnc(Nc4ccc5c(cnn5Cc5ccccc5)c4)c3s2)C1)N1CCOCC1 ?
1.08

# z-score lookup, item Nc1nccc(-c2c(-c3ccc(F)cc3)ncn2C2CCC(O)CC2)n1 (centres undefined)
0.765

Fill in: z-score of Nc1nc(-c2ccccn2)c(-c2ccc3ncccc3n2)s1 is ___
0.265

Any idea what z-score was measured for CN1CCN(CCCNc2nc3ccc(Oc4ccc(NC(=O)Nc5cc(C(F)(F)F)ccc5F)cc4)cc3[nH]2)CC1 ?
-0.94

Need z-score, item Cc1ccc(C(=O)NC2CCCCC2)cc1-c1ccc(C(=O)NCC2CC2)cc1
1.71

Could you tell me which z-score is on file for CCN(CC)S(=O)(=O)c1ccc(OC)c(Nc2ncc(-c3ccccc3)o2)c1 ?
-0.36

----------
method: HDN33 neuroblastoma growth inhibition, cell-based, chromothripsis tumors, cisplatin or BGB combos (AID 1671450);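 further: cells exposed to compound for four days; 0% = vehicle DMSO and 100% = cell killing by high DMSO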
cond: HDN33 neuroblastoma cells, cisplatin combo, at 5 µM, stronger effect = higher value
Kindly state inhibition for each of the entries shown.
Express the result in % but write the number alone.

Find the recorded inhibition belonging to CCn1cc(C(=O)O)c(=O)c2cc(F)c(N3CCNCC3)cc21 and report it.
-11.9

So what does the record say about inhibition for O=C(O)CCCc1ccccc1 ?
0.505

Returns the measured inhibition for the input compound. Input: CCN(CC)CCCC(C)Nc1c2ccc(Cl)cc2nc2ccc(OC)cc12 (centres undefined)
99.8

Value lookup for inhibition; key = O=C1c2c(O)ccc(O)c2C(=O)c2c(NCCNCCO)ccc(NCCNCCO)c21
99.3

----------
method: SU-DIPG-XXV glioma cell viability, MIPE5.0 library, qHTS (AID 1347068)
Results filed as inconclusive are left out. The source made the active and inactive calls. No cut-off is given here; in the data, nearly all actives have IC50 up to about 30 µM.
measuredProperty: IC50

O=c1[nH]cc(F)c(=O)[nH]1
inactive
C[C@]12C=CC(=O)C=C1CC[C@@H]1[C@@H]2C(=O)C[C@@]2(C)[C@H]1CC[C@]2(O)C(=O)CO
inactive
CCC(C)(C)C(=O)O[C@H]1C[C@@H](C)C=C2C=C[C@H](C)[C@H](CC[C@@H]3C[C@@H](O)CC(=O)O3)[C@H]21
inactive
O=C(C1CCCCC1)N1CC(=O)N2CCc3ccccc3C2C1 (centres undefined)
inactive
